- study system: P2X purinoceptor 7 (Homo sapiens)
- Sequence (whole entry): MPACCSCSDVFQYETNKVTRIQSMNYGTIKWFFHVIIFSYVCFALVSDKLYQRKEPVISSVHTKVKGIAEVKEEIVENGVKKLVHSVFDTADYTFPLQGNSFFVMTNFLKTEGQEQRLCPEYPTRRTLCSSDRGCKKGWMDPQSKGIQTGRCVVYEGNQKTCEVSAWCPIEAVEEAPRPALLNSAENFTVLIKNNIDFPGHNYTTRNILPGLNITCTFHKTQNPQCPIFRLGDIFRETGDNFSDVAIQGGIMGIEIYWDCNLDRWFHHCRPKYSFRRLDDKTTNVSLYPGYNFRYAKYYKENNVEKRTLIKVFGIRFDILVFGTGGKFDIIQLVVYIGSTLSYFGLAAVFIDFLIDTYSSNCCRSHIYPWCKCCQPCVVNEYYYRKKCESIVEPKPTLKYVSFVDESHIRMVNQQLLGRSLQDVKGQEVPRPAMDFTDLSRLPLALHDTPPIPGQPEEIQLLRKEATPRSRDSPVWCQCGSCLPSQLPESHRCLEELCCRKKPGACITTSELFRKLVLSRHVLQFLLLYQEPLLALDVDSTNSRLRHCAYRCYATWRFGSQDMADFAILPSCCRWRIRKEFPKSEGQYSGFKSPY
- assay explanation: Antagonist activity at human P2X7 receptor expressed in HEK293 cells assessed as inhibition of BzATP-induced ethidium ion uptake at 1 uM after 2 hrs
- Assay type: cell-based
Active and inactive are the calls of the source. The calls are words filed in the database; no cut-off is given here.
measured metric: inhibition

CC(C)(C)C(=O)N1CCN(c2cc(=O)[nH]c(=O)n2Cc2ccc(OS(=O)(=O)c3cccc4cnccc34)cc2)CC1 : 20%
CC(C)C(=O)N1CCN(c2cc(=O)[nH]c(=O)n2Cc2ccc(OS(=O)(=O)c3cccc4cnccc34)cc2)CC1 : inactive
O=c1cc(N2CCN(c3ccccc3F)CC2)n(Cc2ccc(OS(=O)(=O)c3cccc4cnccc34)cc2)c(=O)[nH]1 : 14%
Cc1ccccc1N1CCN(c2cc(=O)[nH]c(=O)n2Cc2ccc(OS(=O)(=O)c3cccc4cnccc34)cc2)CC1 : inactive
O=c1cc(N2CCN(c3cccc(C(F)(F)F)c3)CC2)n(Cc2ccc(OS(=O)(=O)c3cccc4cnccc34)cc2)c(=O)[nH]1 : 43%
CCCC(=O)N1CCN(c2cc(=O)[nH]c(=O)n2Cc2ccc(OS(=O)(=O)c3cccc4cnccc34)cc2)CC1 : 12%
O=c1cc(N2CCN(c3ccc(F)cc3)CC2)n(Cc2ccc(OS(=O)(=O)c3cccc4cnccc34)cc2)c(=O)[nH]1 : 16%

Sourced from ChEMBL document CHEMBL3739377
